Provenance of the data: the supplement of paper PMC3334620

# target_under_test: Msn1 (UniProt P22148)
# Sequence: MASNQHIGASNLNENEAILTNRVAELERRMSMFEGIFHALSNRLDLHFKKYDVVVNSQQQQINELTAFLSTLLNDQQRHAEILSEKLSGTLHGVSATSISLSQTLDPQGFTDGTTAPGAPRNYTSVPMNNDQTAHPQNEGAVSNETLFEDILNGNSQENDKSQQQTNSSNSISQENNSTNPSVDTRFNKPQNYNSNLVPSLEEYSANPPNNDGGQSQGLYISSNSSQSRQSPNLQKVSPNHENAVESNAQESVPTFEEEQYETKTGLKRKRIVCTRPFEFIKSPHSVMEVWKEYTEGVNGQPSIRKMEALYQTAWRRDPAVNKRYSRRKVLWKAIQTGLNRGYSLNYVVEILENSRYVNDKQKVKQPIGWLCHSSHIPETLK
# method_summary: PBM E-score (8-mer binding enrichment) (E-score (-0.5 to 0.5)); higher = stronger / more preferred TF binding
# condition_notes: protein concentration: 200 nM; construct: GST-full length
Whole data set: some 33,000 sequences, median “E-score (-0.5 to 0.5)” near -0.013, cut for the highest 2% near 0.3. This is one part of a sample in which the highest values are shown more often than they occur.
Below is a list of entries, each paired with its recorded PBM E-score value.
The reply should be a number, written without any unit.

Q: Identify PBM E-score associated with the sequence TCCGGAAA
Result: 0.248

Q: Identify PBM E-score associated with the sequence CGTATCAA
Result: 0.0969

Q: Identify PBM E-score associated with the sequence CAAGCGTA
Result: -0.0459

Q: Identify PBM E-score associated with the sequence ATATCACG
Result: -0.0452

Q: Identify PBM E-score associated with the sequence TCCGGACA
Result: 0.453

Q: Identify PBM E-score associated with the sequence CCCGGACG
Result: -0.156

Q: Identify PBM E-score associated with the sequence CGGACGAC
Result: -0.0607

Q: Identify PBM E-score associated with the sequence CGCTCTAC
Result: -0.0195

Q: Identify PBM E-score associated with the sequence TCCGGAGA
Result: 0.0632

Q: Identify PBM E-score associated with the sequence GCCGGACA
Result: 0.357

Q: Identify PBM E-score associated with the sequence GGGACAAC
Result: 0.375

Q: Identify PBM E-score associated with the sequence AAGCAAAG
Result: -0.064

Q: Identify PBM E-score associated with the sequence ATGTCGCA
Result: 0.38

Q: Identify PBM E-score associated with the sequence ATTTGCAA
Result: 0.103

Q: Identify PBM E-score associated with the sequence CTAAATGC
Result: 0.035

----------
# target_under_test: Msn1 (UniProt P22148)
# Sequence: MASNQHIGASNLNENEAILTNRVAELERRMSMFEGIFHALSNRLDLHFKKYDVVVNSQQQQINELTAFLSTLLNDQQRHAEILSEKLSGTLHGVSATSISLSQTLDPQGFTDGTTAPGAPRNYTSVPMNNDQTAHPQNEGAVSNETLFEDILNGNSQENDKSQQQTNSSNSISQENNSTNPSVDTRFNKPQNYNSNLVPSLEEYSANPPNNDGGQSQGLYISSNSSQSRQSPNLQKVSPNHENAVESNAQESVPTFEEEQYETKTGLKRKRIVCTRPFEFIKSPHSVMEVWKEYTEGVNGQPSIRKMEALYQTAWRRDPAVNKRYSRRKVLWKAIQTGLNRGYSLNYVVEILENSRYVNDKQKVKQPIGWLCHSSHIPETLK
# method_summary: PBM E-score (8-mer binding enrichment) (E-score (-0.5 to 0.5)); higher = stronger / more preferred TF binding
# condition_notes: protein concentration: 200 nM; construct: GST-full length
Whole data set: some 33,000 sequences, median “E-score (-0.5 to 0.5)” near -0.013, cut for the highest 2% near 0.3. For the sample, the highest values were picked, then their nearest neighbours and some sequences at random.
Threshold rule: PBM E-score greater than or equal to -0.001 is Fulfilled; below that, Not fulfilled.

{"primary_sequence": "GTAAGGAC", "assigned_class": "Fulfilled"}
{"primary_sequence": "ATTTCTCG", "assigned_class": "Fulfilled"}
{"primary_sequence": "CCAAGGAC", "assigned_class": "Fulfilled"}
{"primary_sequence": "AATTCCTC", "assigned_class": "Not fulfilled"}
{"primary_sequence": "CCAAGGGC", "assigned_class": "Not fulfilled"}
{"primary_sequence": "AGGGGGCG", "assigned_class": "Not fulfilled"}
{"primary_sequence": "AGAGACAG", "assigned_class": "Fulfilled"}
{"primary_sequence": "TGAGAGAA", "assigned_class": "Fulfilled"}
{"primary_sequence": "CAGCGAAG", "assigned_class": "Not fulfilled"}
{"primary_sequence": "GCAGGGAC", "assigned_class": "Fulfilled"}

Q: API: above_or_equal(metric=PBM E-score, cutoff=-0.001) for item ATAAGGAC
Result: Fulfilled

Q: API: above_or_equal(metric=PBM E-score, cutoff=-0.001) for item TGAATGAA
Result: Fulfilled

Q: API: above_or_equal(metric=PBM E-score, cutoff=-0.001) for item AGAGACCT
Result: Not fulfilled

----------
# target_under_test: Msn1 (UniProt P22148)
# Sequence: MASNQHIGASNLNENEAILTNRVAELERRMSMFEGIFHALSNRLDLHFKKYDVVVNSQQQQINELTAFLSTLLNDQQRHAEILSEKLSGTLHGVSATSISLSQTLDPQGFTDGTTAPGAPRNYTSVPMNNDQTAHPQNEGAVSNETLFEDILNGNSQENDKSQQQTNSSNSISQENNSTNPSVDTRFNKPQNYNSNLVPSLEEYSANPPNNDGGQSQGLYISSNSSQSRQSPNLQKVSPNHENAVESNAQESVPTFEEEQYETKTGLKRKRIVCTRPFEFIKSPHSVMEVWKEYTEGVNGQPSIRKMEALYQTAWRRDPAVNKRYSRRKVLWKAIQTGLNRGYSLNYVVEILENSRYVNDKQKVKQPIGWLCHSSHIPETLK
# method_summary: PBM E-score (8-mer binding enrichment) (E-score (-0.5 to 0.5)); higher = stronger / more preferred TF binding
# condition_notes: protein concentration: 200 nM; construct: GST-full length
Over roughly 33,000 sequences, “E-score (-0.5 to 0.5)” has its median near -0.013; the highest 2% begin near 0.3. For the sample, the highest values were picked, then their nearest neighbours and some sequences at random.
Threshold rule: PBM E-score greater than or equal to 0.2 is Met; below that, Not met.

The following sequences have reported results that may help.
{"primary_sequence": "GACACGCC", "assigned_class": "Met"}
{"primary_sequence": "GCCAAGCA", "assigned_class": "Not met"}
{"primary_sequence": "AACACGCC", "assigned_class": "Not met"}

Q: API: above_or_equal(metric=PBM E-score, cutoff=0.2) for item GACACGGA
Result: Met

Q: API: above_or_equal(metric=PBM E-score, cutoff=0.2) for item CTCACGGA
Result: Not met

----------
# target_under_test: Msn1 (UniProt P22148)
# Sequence: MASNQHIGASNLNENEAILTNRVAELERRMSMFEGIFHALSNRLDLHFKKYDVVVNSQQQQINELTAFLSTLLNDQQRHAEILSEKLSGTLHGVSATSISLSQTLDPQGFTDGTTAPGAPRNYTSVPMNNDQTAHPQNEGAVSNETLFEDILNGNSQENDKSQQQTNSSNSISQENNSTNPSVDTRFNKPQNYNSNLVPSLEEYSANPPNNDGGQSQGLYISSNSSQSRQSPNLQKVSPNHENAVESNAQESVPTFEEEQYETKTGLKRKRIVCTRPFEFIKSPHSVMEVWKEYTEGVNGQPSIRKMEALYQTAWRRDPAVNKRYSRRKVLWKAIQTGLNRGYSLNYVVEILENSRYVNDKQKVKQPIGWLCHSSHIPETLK
# method_summary: PBM E-score (8-mer binding enrichment) (E-score (-0.5 to 0.5)); higher = stronger / more preferred TF binding
# condition_notes: protein concentration: 200 nM; construct: GST-full length
Whole data set: some 33,000 sequences, median “E-score (-0.5 to 0.5)” near -0.013, cut for the highest 2% near 0.3. The sample as a whole holds a higher share of the highest values than the screen did.
Threshold rule: PBM E-score greater than or equal to 0.2 is 1; below that, 0.

The following sequences have reported results that may help.
{"primary_sequence": "TACAGAGA", "assigned_class": 0}
{"primary_sequence": "ATGTACAC", "assigned_class": 1}
{"primary_sequence": "ATGTACCA", "assigned_class": 1}
{"primary_sequence": "CACAGACG", "assigned_class": 0}
{"primary_sequence": "AATATTAA", "assigned_class": 1}
{"primary_sequence": "CACAGACC", "assigned_class": 0}

Q: API: above_or_equal(metric=PBM E-score, cutoff=0.2) for item AATATTAG
Result: 0

Q: API: above_or_equal(metric=PBM E-score, cutoff=0.2) for item GTGTACCA
Result: 0
